system: SNU182; experiment: Cell proliferation assay (Alamar Blue); assay type: cell-based; conditions: Homo sapiens, SNU-182, 144 h; SNU182 liver cancer cell line; 6 days
endpoint: IC50 (µM)
Numeric answer only, unit µM assumed.

1. Cc1ccc(F)c(NC(=O)Nc2ccc(-c3cccc4c3c(N)nn4C(=O)C[C@H](N)C(=O)N[C@@H](CCC(=O)N[C@@H](CCC(=O)N[C@@H](CCC(=O)N[C@@H](CCC(=O)N[C@@H](CCC(=O)N[C@@H](CCC(=O)N[C@@H](CCC(=O)N[C@@H](CCC(=O)N[C@@H](CCC(=O)O)C(=O)O)C(=O)O)C(=O)O)C(=O)O)C(=O)O)C(=O)O)C(=O)O)C(=O)O)C(=O)O)cc2)c1    54.2

Next molecule, IC50 to be filled in.
Prompt line: So what IC50 did Cc1ccc(F)c(NC(=O)Nc2ccc(-c3cccc4[nH]nc(N)c34)cc2)c1 [Linifanib, reference compound] get with SNU182?
Response line: 15.2

* * *

Overview of reported IC50 across a group of molecules:
Tested on: SW620
Assay: Cell proliferation assay (Alamar Blue)
Assay type: cell-based
Details: Homo sapiens, SW-620, 144 h; SW620 tumor cell line; 6 days
Experimental: 1. Instruments and Materials • Thermo 311 CO2 incubator; Haier biosafety cabinet; Molecular Devices microplate reader; Xiangyi brand L530 desktop low speed centrifuge; Olympus IX51 inverted fluorescence microscope, DMEM, RPMI 1640, MEM, DMEM/F12 1:1 medium, Fetal bovine serum, 0.25% trypsin solution, phosphate buffer (Thermo Fisher Shanghai Co., Ltd.); sigma dimethyl sulfoxide (DMSO), resazurin; 54 commercial tumor cell lines (including 26 liver cancer cell lines). […]
Give the number; µM is assumed, so skip it.

Worked cases, answers included:
1. Cc1ccc(F)c(NC(=O)Nc2ccc(-c3cccc4c3c(N)nn4C(=O)C[C@H](N)C(=O)N[C@@H](CCC(=O)N[C@@H](CCC(=O)N[C@@H](CCC(=O)N[C@@H](CCC(=O)O)C(=O)O)C(=O)O)C(=O)O)C(=O)O)cc2)c1 [Compound 2]    4.67
2. Cc1ccc(F)c(NC(=O)Nc2ccc(-c3cccc4c3c(N)nn4C(=O)CCCCCCCCCCCNC(=O)C[C@H](N)C(=O)N[C@@H](CCC(=O)N[C@@H](CCC(=O)N[C@@H](CCC(=O)N[C@@H](CCC(=O)N[C@@H](CCC(=O)N[C@@H](CCC(=O)N[C@@H](CCC(=O)N[C@@H](CCC(=O)N[C@@H](CCC(=O)O)C(=O)O)C(=O)O)C(=O)O)C(=O)O)C(=O)O)C(=O)O)C(=O)O)C(=O)O)C(=O)O)cc2)c1 [Compound 9]    66.7
3. Cc1ccc(F)c(NC(=O)Nc2ccc(-c3cccc4c3c(N)nn4C(=O)CCCCCNC(=O)C[C@H](N)C(=O)O)cc2)c1 [Compound 11]    60.3

// below: IC50 requested for another molecule
Prompt line: Consider the molecule Cc1ccc(F)c(NC(=O)Nc2ccc(-c3cccc4c3c(N)nn4C(=O)CCCCCNC(=O)C[C@H](N)C(=O)N[C@@H](CCC(=O)O)C(=O)O)cc2)c1 [Compound 4] and give its measured IC50.
Response line: 71.4

* * *

tested on: SNU886; assay: Cell proliferation assay (Alamar Blue); format: cell-based; conditions: SNU-886, 144 h; SNU886 liver cancer cell line; 6 days
endpoint: pIC50
Note on pIC50: it is the negative log10 of concentration, concentration in mol/L.

Prompt line: Provide the documented pIC50 with SNU886 as the system for Cc1ccc(F)c(NC(=O)Nc2ccc(-c3cccc4c3c(N)nn4C(=O)CCCCCCCCCCCNC(=O)C[C@H](N)C(=O)N[C@@H](CCC(=O)N[C@@H](CCC(=O)N[C@@H](CCC(=O)N[C@@H](CCC(=O)O)C(=O)O)C(=O)O)C(=O)O)C(=O)O)cc2)c1
Response line: 4.22
